The reported numbers originate from the supplement of paper PMC6555819.

- System: PPARg:RXRa DBDmut IVT, anti-RXR (DBD mutation: RXRa K156A/R161A, NR concentration 270 nM, RXRa partner concentration 90 nM)
- experiment_notes: PBM binding z-score (relative to random genomic background probes); higher = stronger binding; sequences stand for … in GC…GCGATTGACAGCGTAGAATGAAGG
Below: a set of entries, each annotated with reported PBM binding z-score.

Observe how each entry below is paired with its result.
1. TCAGACCGGTGAAGGTAACTCAGGTACGCAGTCG	1.9
2. TAGCCTAGGTCTTGGGCCAGTATACCACGCGAAC	-0.718
3. CTCGAAAGCTCGTGCTCAGGTGAGTATACCAAAC	-0.844

The record that follows has no PBM binding z-score shown yet.
Give the measured PBM binding z-score for CAAACTAGGTCACGAAAGGTCAGAGTCGAATGAC 8.85

----------
- Test system: THRa:RXRa (NR concentration 90 nM, RXRa partner concentration 90 nM)
- experiment_notes: PBM binding z-score (relative to random genomic background probes); higher = stronger binding; sequences stand for … in GC…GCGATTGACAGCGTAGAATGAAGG
Below: a set of entries, each annotated with reported PBM binding z-score.

Observe how each entry below is paired with its result.
1) CGAACTAGGTCAGAACAGGACTGTGAAGGATGAT	1.97
2) TGAATGAGGTAAAAGATCAGGGAACGTGGCGTCG	1.3
3) GGAACGAGGGCAAATTGATAGCAGAGTTTGATGG	0.906
4) ACTCGGAGGACATAGGTCAGAGCTACGCCAGTGA	2
5) CCTACTGGGCCAAGGTCATTTATCAGTCAAAGCA	3.27
6) TGGCAAAGTTCAAAGGTAACGTAAGTATCCACAC	3.41
7) GGACCGAGGGCAAGTTGATAGCAGAGTTTGATGG	0.968
8) CCTTACGGGTGAAGGTTATAGCACGGGTGGTACG	0.509

Give the measured PBM binding z-score for CCGACTGTGGCAGAAAGGTTACCATACCATCCGG 0.958

Give the measured PBM binding z-score for CCTTACGGGTCACTCCAGGTTAGAGCATCGGAGT 4.81

----------
Below: a set of entries, each annotated with reported PBM binding z-score.
- Tested on: LXRb homodimer (NR concentration 270 nM)
- experiment_notes: PBM binding z-score (relative to random genomic background probes); higher = stronger binding; sequences stand for … in GC…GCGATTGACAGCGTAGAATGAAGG
// return just the number, without any unit appended

Observe how each entry below is paired with its result.
1. CGTCCAAGGTCATAGGAGGCCAGTGAAGACAGAT	0.536
2. GGAACGACGGCATTCGAGTTGATAGCATGGCGAT	-1.04
3. GCTGCTAGCTCAGGTTGGTCAGCTAACGGGTACG	-1.25
4. CATTACGGGTCACTGACAGGTTATAGCATTTGGA	0.756
5. ATCTCTAGGTAAAAGGTCAGTGAATCCCGAGGAT	1.09

The record that follows has no PBM binding z-score shown yet.
Give the measured PBM binding z-score for TAGCCTAGGTCATTCAGGGGCCCGTATAGAAAGC 0.963

----------
Below: a set of entries, each annotated with reported PBM binding z-score.
- System: RARa homodimer (NR concentration 270 nM)
- experiment_notes: PBM binding z-score (relative to random genomic background probes); higher = stronger binding; sequences stand for … in GC…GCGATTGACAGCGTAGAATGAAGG
// return just the number, without any unit appended

Observe how each entry below is paired with its result.
1. TCATATAGGTAAAAGGTGAAAGCCGGTGTGGTAA	0.942
2. GCATACAGGTAATACAAGGTGAAAGTCCGATTGT	0.481
3. TCAGACACGTGAAGGTAACTCAGGTACGCAGTCG	-0.256

Given TAGCCTAAGTCATTGGGCCAGTATAGTACGCATC , report its PBM binding z-score on RARa homodimer (NR concentration 270 nM). -0.564

----------
- Tested on: VDR homodimer (NR concentration 270 nM)
- experiment_notes: PBM binding z-score (relative to random genomic background probes); higher = stronger binding; sequences stand for … in GC…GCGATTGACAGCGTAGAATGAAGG
The label depends only on PBM binding z-score: 1 if it is at least 0.4, 0 if it is smaller.

Exam item: decide whether the reported PBM binding z-score for CGTCCAAGGTGAATGCTAGGTCAGTGAAAGCATT is at least 0.4. 0

Exam item: decide whether the reported PBM binding z-score for CCTGCTAGGTCAATGGTCAGGTAAAGCAGCTCGC is at least 0.4. 0

Exam item: decide whether the reported PBM binding z-score for CGAACTAGGTCAGAACAGGCCAGTGAAGGATGAT is at least 0.4. 0

Exam item: decide whether the reported PBM binding z-score for GCTTGTAGATCAATGTTAAGAAAGACTAAGCTAA is at least 0.4. 0

Exam item: decide whether the reported PBM binding z-score for ACTTACGGGTCAACGAGGTTATACCACGCGTATA is at least 0.4. 1

Exam item: decide whether the reported PBM binding z-score for CAGCCTAGGTCAGAGCCAGTATAGGAGGAACGTT is at least 0.4. 0

Exam item: decide whether the reported PBM binding z-score for GCAGACAGGTGAAACGCTGGTAACTCAGGGTGGC is at least 0.4. 0

Exam item: decide whether the reported PBM binding z-score for CGTCCAAGGTCAAAGGTAAGTGAAGAGATGACGG is at least 0.4. 1

Exam item: decide whether the reported PBM binding z-score for TCGAGTAGGTGAGGGGCATTCAGAATGGCGTCGA is at least 0.4. 0

Exam item: decide whether the reported PBM binding z-score for GATACAGGGTCCAGGCCAGAGTACGCGTATTGAT is at least 0.4. 1

Exam item: decide whether the reported PBM binding z-score for TCAGACAGGTGAAGGTTACTCAGGTACGCAGTCG is at least 0.4. 1

Exam item: decide whether the reported PBM binding z-score for CAGACTAGGTCAGGGCCAGTATAGGAGGAACGTT is at least 0.4. 0

Exam item: decide whether the reported PBM binding z-score for CCTCGGAGGACAGAATGTCAGAGCTGTCCGCTTT is at least 0.4. 0

Exam item: decide whether the reported PBM binding z-score for ATCACTAGGTAAAGATAGTTCAGTGAATGCAAAT is at least 0.4. 1

Exam item: decide whether the reported PBM binding z-score for ATATGTAGGTTAAGGTTCATTCAGGTTGGTTCGC is at least 0.4. 1

Exam item: decide whether the reported PBM binding z-score for ACAGACAGGTGAGTGATGGTAACTCAGCTGGACG is at least 0.4. 0

Exam item: decide whether the reported PBM binding z-score for ATCTCTAGGTAAGACTCAGTTCAGTAAAGAACGC is at least 0.4. 1

----------
Below: a set of entries, each annotated with reported PBM binding z-score.
- System: FXR:RXRa (NR concentration 270 nM, RXRa partner concentration 90 nM)
- experiment_notes: PBM binding z-score (relative to random genomic background probes); higher = stronger binding; sequences stand for … in GC…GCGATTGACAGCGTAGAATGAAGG
// return just the number, without any unit appended

1. GCTCGGAGGACAAGGTAAGAGCTTTGTCCGTAGA	-0.326

Give the measured PBM binding z-score for GCTTACCGGTCAAAGGTTATAGCATGAATAGAAT 4.43

Give the measured PBM binding z-score for CGAACTAGGTCATTGACAGGACAGGGAATAGTAA 4.56

----------
- Tested on: PPARg:RXRa IVT, anti-PPARg (NR concentration 270 nM, RXRa partner concentration 90 nM)
- experiment_notes: PBM binding z-score (relative to random genomic background probes); higher = stronger binding; sequences stand for … in GC…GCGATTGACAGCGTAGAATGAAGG
The label depends only on PBM binding z-score: Met if it is at least 4, Not met if it is smaller.

Below are worked cases with known answers.
1) TCTTGGAGATCAATAGAGGTTAAGAAAGTGCGCT	Not met
2) CGAACTAGGTCATACAGGACAGTGAATACATTGA	Met
3) CCGACTGGGGCAGAAAGGTGACCATACCATCCGG	Not met
4) ACTATTAGTTGAGACGAGGGCAACTGATAGGTTG	Not met

Exam item: decide whether the reported PBM binding z-score for TCGAGTAGGTCACCAATGGGGCATTCAGCTTTCT is at least 4. Met

Exam item: decide whether the reported PBM binding z-score for TGAGACAGGTGAAGGTAACTCAGGTACGCAGTCG is at least 4. Not met

Exam item: decide whether the reported PBM binding z-score for CCTAGTTGGTGAGGAGGTCACACACCGGATATGA is at least 4. Not met

Exam item: decide whether the reported PBM binding z-score for ACTATTAGTTGCGACGAGGGCAACCGATAGGTTG is at least 4. Not met
